pIC50: −log10 of the molar value.
Values of pIC50 for BTK (Homo sapiens, UniProt Q06187), collected from a number of published sources:

Some compounds with known pIC50 results, for comparison:
Report pIC50 for CNC(=O)c1ccccc1Nc1ccnc2cc(-c3cc(OC)c(OC)c(OC)c3)oc12 please.
5.52 to 6.52

Try this compound too: C=CC(=O)N1CCC[C@@H](Nc2nc(Nc3cc(C)ns3)nc3ccsc23)C1
≥ 7.30

Try this compound too: C=CC(=O)N1CCC(n2nc(-c3ccc(Oc4ccccc4)cc3)c3c(N)ncc(/C=C/c4ccc(F)cc4)c32)CC1
8.43

Next:
Report pIC50 for CC1C(Nc2ncnc3[nH]ncc23)CCCN1C(=O)CNc1cc(F)cc(Cl)c1 (stereo not drawn) please.
> 7.00

Try this compound too: CC#CC(=O)NC12CC3CC(C1)CC(c1nc(-c4ccc(C(=O)Nc5ccccn5)cc4)c4c(N)nccn14)(C3)C2
6.67

Try this compound too: C=CC(=O)Nc1cc(Nc2cc(Oc3ccc(Oc4ccccc4)cc3)ncn2)cc(C(=O)NCCOC)c1
7.00 to 8.00

* * *

Values of IC50 for BTK (Homo sapiens, UniProt Q06187), collected from a number of published sources:

IC50 of Cc1cc(-c2nc(N3CCN(C)CC3)cn3nccc23)ccc1CNC(=O)c1nnn(C(C)(C)C)n1 on BTK (Homo sapiens, UniProt Q06187)?
1 to 10 nM

Try this molecule too: C=CC(=O)N1CC[C@@H](n2nc(-c3ccc(Oc4ccc(C)c([N+](=O)[O-])c4)cc3)c(C(N)=O)c2N)C1
< 100 nM

Try this molecule too: C=CC(=O)Nc1cccc(-c2csc3c(=S)cc(N4CCOCC4)oc23)c1
1000 to 10000 nM

Try this molecule too: O=C(CNc1ccccc1OCCc1ccccc1)N[C@@H]1CCCN(c2ncnc3[nH]ccc23)C1
< 100 nM

Try this molecule too: C=CC(=O)N1CCc2c(cccc2-c2ncc(C(N)=O)c3[nH]c4c(c23)CCCC4)C1
< 10 nM

Try this molecule too: C=CC(=O)N1CCC[C@@H](n2nc(-c3ccc(C(=O)Nc4ccccc4)cc3)c3c(N)ncc(-c4cnn(C5CCN(C)CC5)c4)c32)C1
1.9 nM

Try this molecule too: Cn1cc(-c2cnc3[nH]cc(C(=O)c4c(F)ccc(NS(=O)(=O)C(F)(F)F)c4F)c3c2)cn1
≤ 10000 nM

Try this molecule too: C=CC(=O)N1CC[C@]2(C1)C[C@H](n1c(NC(=O)c3ccc(-c4ccccc4)s3)nc3ccccc31)C2
6.12 nM

Try this molecule too: Cc1cc(C)c(NCC(=O)N[C@@H]2CCCN(c3ncnc4[nH]ccc34)C2)c(C)c1
1000 to 10000 nM

Kindly consider the entry below.
IC50 of Cn1cc(-c2cn3nccc3c(-c3cc(F)c(CNC(=O)c4nc(C(C)(C)C)no4)cc3F)n2)cn1 on BTK (Homo sapiens, UniProt Q06187)?
< 1 nM

* * *

pIC50: −log10 of the molar value.
Values of pIC50 for BTK (Homo sapiens, UniProt Q06187), collected from a number of published sources:

Some compounds with known pIC50 results, for comparison:
pIC50 of CN(C(=O)/C=C/CN(C)C1CC1)c1ccc(-n2c(=O)n(-c3ccc(Cl)cc3)c3c(N)ncnc32)cc1 on BTK (Homo sapiens, UniProt Q06187)?
6.00 to 7.00

Try this compound too: Cn1cnc2cc(-c3cccc4c(N)c(C(N)=O)nnc34)ccc21
4.80

Try this compound too: C=CC(=O)N(CC)c1cc(Nc2ncc3cc(-c4c(C)cc[nH]c4=O)ccc3n2)ccc1OC
> 7.00

Try this compound too: C#Cc1cccc(NCC(=O)NC2CCCN(c3ncnc4[nH]ccc34)C2)c1 (stereo not shown)
> 7.00

Next:
pIC50 of CC[C@@H](Nc1cc(Cl)cc(Cl)c1)C(=O)N1CCC2CCN(c3ncnc4[nH]ccc34)C2C1 (stereo partly shown) on BTK (Homo sapiens, UniProt Q06187)?
> 7.00

Try this compound too: CN(c1ncnc2[nH]ccc12)[C@H]1CCCN(C(=O)CNc2cc(Cl)cc(C(F)(F)F)c2)C1
6.00 to 7.00

Try this compound too: C=CC(=O)N1CC[C@]2(C1)C[C@H](n1c(NC(=O)c3ccc(-c4ccnc(NC)c4)s3)nc3ccccc31)C2
9.34
